system: HL60 leukemia; assay: MTT assay, proliferation inhibition; assay type: cell-based; settings: Homo sapiens, HL-60, read-out: Proliferation inhibition rate
MEASUREMENT_KIND: inhibition at 1 µM (%)
Give a bare numeral; the unit % is implied.

Give its inhibition at 1 µM value. Item: COC(=O)O[C@H]1C[C@H]2OC[C@@]2(OC(C)=O)[C@H]2[C@H](OC(=O)c3ccccc3)[C@]3(O)C[C@H](OC(=O)[C@H](O)[C@@H](NC(=O)OC(C)(C)C)c4ccccn4)C(C)=C([C@@H](OC)C(=O)[C@]12C)C3(C)C
97.4

Endpoint output: inhibition at 1 µM of CO[C@H]1C[C@H]2OC[C@@]2(OC(C)=O)[C@H]2[C@H](OC(=O)c3ccccc3)[C@]3(O)C[C@H](OC(=O)[C@H](O)[C@@H](NC(=O)OC(C)(C)C)c4ccccn4)C(C)=C([C@@H](OC(=O)N(C)C)C(=O)[C@]12C)C3(C)C . Value?
98.1

Suppose we examine the compound CO[C@H]1C(=O)[C@]2(C)C=C[C@@H](O)[C@](CO)(OC(C)=O)[C@H]2[C@H](OC(=O)c2ccccc2)[C@]2(O)C[C@H](OC(=O)[C@H](O)[C@@H](NC(=O)c3ccccc3)c3ccccc3)C(C)=C1C2(C)C ; what inhibition at 1 µM value has been reported?
76.3

Look up inhibition at 1 µM: CO[C@H]1C(=O)[C@]2(C)[C@@H](OC(=O)N(C)C)C[C@H]3OC[C@@]3(OC(C)=O)[C@H]2[C@H](OC(=O)c2ccccc2)[C@]2(O)C[C@H](OC(=O)[C@H](O)[C@H](CC(C)C)NC(=O)OC(C)(C)C)C(C)=C1C2(C)C
98.1

Item CO[C@H]1C[C@H]2OC[C@@]2(OC(C)=O)[C@H]2[C@H](OC(=O)c3ccccc3)[C@]3(O)C[C@H](OC(=O)[C@H](O)[C@@H](NC(=O)c4ccccc4)c4ccccc4)C(C)=C([C@@H](OC(=O)N(C)C)C(=O)[C@]12C)C3(C)C has what recorded inhibition at 1 µM?
97.2

Item under review: CO[C@H]1C(=O)[C@]2(C)[C@@H](OC(=O)N(C)C)C[C@H]3OC[C@@]3(OC(C)=O)[C@H]2[C@H](OC(=O)c2ccccc2)[C@]2(O)C[C@H](OC(=O)[C@H](O)[C@@H](NC(=O)N(C)C)c3ccccc3)C(C)=C1C2(C)C . Reported inhibition at 1 µM?
97.5

Which inhibition at 1 µM is listed for COC(=O)O[C@H]1C[C@H]2OC[C@@]2(OC(C)=O)[C@H]2[C@H](OC(=O)c3ccccc3)[C@]3(O)C[C@H](OC(=O)[C@H](O)[C@H](CC(C)C)NC(=O)OC(C)(C)C)C(C)=C([C@@H](OC)C(=O)[C@]12C)C3(C)C ?
99.1

Looking for the measured inhibition at 1 µM of COC(=O)O[C@H]1C(=O)[C@]2(C)[C@@H](OC)C[C@H]3OC[C@@]3(OC(C)=O)[C@H]2[C@H](OC(=O)c2ccccc2)[C@]2(O)C[C@H](OC(=O)[C@H](O)[C@@H](NC(=O)OC(C)(C)C)c3ccccc3)C(C)=C1C2(C)C , can you help?
96.8

Endpoint output: inhibition at 1 µM of CC(=O)O[C@H]1C(=O)[C@@]2(C)[C@H]([C@H](OC(=O)c3ccccc3)[C@]3(O)C[C@H](OC(=O)[C@H](O)[C@@H](NC(=O)c4ccccc4)c4ccccc4)C(C)=C1C3(C)C)[C@]1(OC(C)=O)CO[C@@H]1C[C@@H]2O [Paclitaxel, reference compound] . Value?
96.8

inhibition at 1 µM lookup needed for COC(=O)O[C@H]1C(=O)[C@]2(C)[C@@H](OC)C[C@H]3OC[C@@]3(OC(C)=O)[C@H]2[C@H](OC(=O)c2ccccc2)[C@]2(O)C[C@H](OC(=O)[C@H](O)[C@H](CC(C)C)NC(=O)OC(C)(C)C)C(C)=C1C2(C)C , thanks.
96.9

GET /values?readout=inhibition at 1 µM&item= CO[C@H]1C(=O)[C@]2(C)CC[C@H]3OC[C@@]3(OC(C)=O)[C@H]2[C@H](OC(=O)c2ccccc2)[C@]2(O)C[C@H](OC(=O)[C@H](O)[C@@H](NC(=O)OC(C)(C)C)c3ccccc3)C(C)=C1C2(C)C
97.7

GET /values?readout=inhibition at 1 µM&item= COC(=O)O[C@H]1C(=O)[C@]2(C)[C@@H](OC)C[C@H]3OC[C@@]3(OC(C)=O)[C@H]2[C@H](OC(=O)c2ccccc2)[C@]2(O)C[C@H](OC(=O)[C@H](O)[C@@H](NC(=O)N(C)C)c3ccccc3)C(C)=C1C2(C)C
96.8

What inhibition at 1 µM value was documented for this compound, CCSC(=O)O[C@H]1C[C@H]2OC[C@@]2(OC(C)=O)[C@H]2[C@H](OC(=O)c3ccccc3)[C@]3(O)C[C@H](OC(=O)[C@H](O)[C@@H](NC(=O)N(C)C)c4ccccc4)C(C)=C([C@@H](OC)C(=O)[C@]12C)C3(C)C ?
96.9

For the compound shown here, COC(=O)O[C@H]1C[C@H]2OC[C@@]2(OC(C)=O)[C@H]2[C@H](OC(=O)c3ccccc3)[C@]3(O)C[C@H](OC(=O)[C@H](O)[C@@H](NC(=O)c4ccccc4)c4ccccc4)C(C)=C([C@@H](OC)C(=O)[C@]12C)C3(C)C , give the reported inhibition at 1 µM.
97

I have this compound here, CO[C@H]1C(=O)[C@]2(C)[C@@H](OC(=O)N(C)C)C[C@H]3OC[C@@]3(OC(C)=O)[C@H]2[C@H](OC(=O)c2ccccc2)[C@]2(O)C[C@H](OC(=O)[C@H](O)[C@@H](NC(=O)OC(C)(C)C)c3ccccn3)C(C)=C1C2(C)C , and I need its recorded inhibition at 1 µM.
97.8
